All figures here come from the RNAGym collection of RNA variant scans (doi:10.1073/pnas.2313332121).

B1: TPR t1 (parent)
chain: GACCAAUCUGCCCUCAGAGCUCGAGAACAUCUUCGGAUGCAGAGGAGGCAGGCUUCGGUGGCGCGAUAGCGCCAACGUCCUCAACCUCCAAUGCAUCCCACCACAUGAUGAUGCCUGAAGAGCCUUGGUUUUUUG

Variants of: B1
method summary: polymerase ribozyme fitness, log enrichment relative to wild type (log ratio); higher = more active; in vitro selection for triplet polymerase activity
quantity kind: polymerase ribozyme fitness (log ratio)

[
  {
    "biosequence": "GACCAAUCUGCCCUCAGAGCUCGAGAACAUCUUCGGAUGCAGAGGAGGCAGGCUUCGGUGGCGCGAUAGCGCCAACGUCCUCAACCUACAAUGCAUCCCAACACAUGAUGAUGCCUGAAGAGCCUUGGUUUUUUG",
    "numeric result": -1.2
  },
  {
    "biosequence": "GACCAAUCUGCCCUCAGAGCUGAAGAACAUCUUCGGAUGCAGAGGAGGCAGGCUUCGGUGGCGCGAUAGCGCCAACGUCCUCAACCUCUAAUGCAUCCCACCACAUGAUGAUGUCUGAAGAGCCUUGGUUUUUUG",
    "numeric result": -4.41
  },
  {
    "biosequence": "GACCAAUCUGCCCUCAGAGCUCGAGAACAUCUUCGGAUGCAGAGGAGGCAGGAUUCGGUGGCGCGAUAGCGCCAACGUCCUCAACCUUCAAUGCAUCCCAUCACAUGAUGAUGCCUGAAGAGUCUUGGUUUUUUG",
    "numeric result": 0.64
  },
  {
    "biosequence": "GACCAAUCUGCCCUCAGAGCUCGAGAACAUCUUCGGAUGCAGAGGAGGCAGGCUUUGGUGGCGCGAUAGCGCCAACGUCCUCAACCUCCAAUGCAUCCCACCACAUGAUGAUGCCUAAAGAGCCUUGGUUUUUUG",
    "numeric result": -1.46
  },
  {
    "biosequence": "GACCAAUGUGCCCUCAGAGCUCGAGAACAUCUUCGGAUGCCGAGGAGGCAGGCUUCGGUGGCUUGAUAGCGCCAACGUCCUCAACCUCCAAUGCAUCCCACCACAUGAUGAUACCUGGAGAGCCUUGGUUUUUUG",
    "numeric result": -7.5
  },
  {
    "biosequence": "GACCAAUCUGCCCUCAGAGCUCGAGAACAUCUUCGGAUGCAGAGGAGGCCGGCUUCGGUGGCUCGAUAUCGCCAACGUCCGCAACCUCCAAUGCAUCCCACCACAUGAUGAUGCCUGAAGAGCCUUGCUUUUUUG",
    "numeric result": -3.4
  },
  {
    "biosequence": "GACCAAUCUGCCCUCAGAGCUCGAGAACAUCUUCGGAUGCAGAGGAGGCAGGCUUAGGUGACGCGAUAGCGCCAACGUCCUCAACCUCCAACGCAUCCCACCACAUGAUGAUGCCUGAAGAGCCUUGGUUUUUUG",
    "numeric result": -4.04
  },
  {
    "biosequence": "GACCAAUCUGCCCUCAGAGCUCGAGAACAUCUUCGGAUGCAGAGGAGGCAGGCUUCAGUGGCGCGAUAGCGCCAACGUCCUCAACCUCCAAUGCAUCCCACCAUAUGAUGAUGCCUGAAGAGCCUUGGUUUUUUG",
    "numeric result": -0.961
  },
  {
    "biosequence": "GACCAAUGUGCCCUCAGAGCUCGAGAACAUCUUCGGAUGCAGAGGAGGCAGGCUUCGGUGGCGCGAUAGCGCCAACGUCCUCAACCUCCAAUGCAUCCCACCACAUGAUGAUGCCUGUAGAGCCUUGGUUUUUUG",
    "numeric result": 1.5
  },
  {
    "biosequence": "GACCAAUCUGCCCUCAGAGCUCGAGAACAUCUUCGGAUGCAUAGGAGGCAGGCUUCGGUGGCGCGAUAGCGCCAACGUCCUCAACCUCCAAUGCAUCCCACCACAUGAUGAUGCCUGAAGAGCCUUGGUUUUUUG",
    "numeric result": -1.31
  },
  {
    "biosequence": "GACCAAUCUGCCCUCAGAGCUCGAGAACAUCUUCGGAUGCAGAGGAGGCAGGCUUCGGUGGCGCGAUAGCUCCAACGUCCUCAACCUCCAAUGCAUCCCACCACAUGAUGAUGCCUGAAGAGCCUUGGUUAUGUG",
    "numeric result": -1.3
  },
  {
    "biosequence": "GACCAAUCUGCCCUCAGAGCUCGAGAACAUCUUCGGAUGCAGAGGAGGCAGGCUUCGGUGGAGCGAUAGCGCCAACGUCCUCAACAUCCAAUGCAUCCCACCACAUGAUGAUGCCUGAAGAGCCUUGGUUUUUUG",
    "numeric result": -2.26
  },
  {
    "biosequence": "GACCAAUCUGCCCUCAGAGCUCGAGAACAUCUUCGGAUGCAGAGGAGGCAGGCUUCGGUUGCGCGAUAGCGCCAACGUGCUCAACCUCCAAUGCAUCCCACCACAUGAUGAUGUCUGAAGAGCCUUGGUUUUUUG",
    "numeric result": -4.12
  },
  {
    "biosequence": "GACCAAUCUGCCCUCAGAGCUCGAGAACAUCUUCGGAUGCAGAGGAGGAAGGCUUCGGUGGCGCGAUAGCGCCAACGUCCUCCACCUCCAAUGCAUCCCACCACAUGAUGAUGCCUGAAGAGCCUUGGUUUUUUG",
    "numeric result": -1.24
  },
  {
    "biosequence": "GACCAAUCUGCCCUCAGAGCUCGAGAACUUCUUCGGAUGCAGAGGAGGCAGGCUUCGGUGGCGCGAUAGCGCCAACGUCCUCAACCUCCAAUGCAUCCCACCACAUGAUGAGGCCUGAAGAGCCUUGGUUUUCUG",
    "numeric result": -1.1
  },
  {
    "biosequence": "GACCAAUCUGCCCUCAGACCUCGAGAACAUCUUCGGAUGCAGAGGAGGCAGGCUUCGGUGGCGCGAUAGCGCCAACGUCCUCAACCUCCAAUGCAUCCCAACACAUGAUGAUGCCUGAAGAGCCUUGGUUUUUUG",
    "numeric result": -3.27
  },
  {
    "biosequence": "GACCAAUCUGCCCUCAGAGCUCGAGAACAUCUUCGGAUGCAGAGGAGGCAGGCUUCGGUGUCGCGAUAGCGCCAACGUCCUCAACCUCCAAUGCAUCCCACCACAUUAUGAUGCCUGAAGAGCCUUGGUUUUUUG",
    "numeric result": -4.51
  },
  {
    "biosequence": "GACCAAUCUGCCCUCAGAGCUCGAGAACAUCUUCGGAUGCAGAGGAGGCAGACUUCGGUGGCCCGAUAGCGCCAACGUCCUCAACCUCCAAUGCAUCCCACCACAUGAUGAUGCCUGAAGAGCCUUGGUUUUUUG",
    "numeric result": -0.879
  },
  {
    "biosequence": "GACCAAUCUGCCCUCAUAGCUCGAGAACAUCUUCGGAUGCAGAGGAGGCAGGCUUCGGUGGCGCGAUAGCGACAACGUCCUCAACCUCCAAUGCAUCCCACCACAUGAUGAUGCCUGAAGAGCCUUGGUUUUUUG",
    "numeric result": -1.86
  },
  {
    "biosequence": "GACCAAUCUGCCCUCAGAGCUCGAGAACAUCUUCGGAUGCAGAGGAGGCAGGCUUCGGUGGCGCGAUAGCGGCAACGUCCUCAACCUCCAAUGCAUCCCACCACAUGAUGAUGCCUGAAGAGUCUUGGUUUUUUG",
    "numeric result": 0.62
  },
  {
    "biosequence": "GACCAAACUGCCCUCAGAGCUCGAGAACAUCUUCGGAUGCAGAGGAGGCAGGCUUCGGUGGCGCGAUAGCGUCAACCUCCUCAACCUCCAAUCCAUCCCACCACAUGAUGAUACCUGAAAAGCCUUGGUUUUUUG",
    "numeric result": -2.99
  },
  {
    "biosequence": "GACCAAUCUGCCCUCAGAGCUCGAGAACAUCUUCGGAUGCAGAGGAGGCAGGGUUCGGUGGCGCGAUAGCGUCAACGUCCUCAACCUCCAAUGCAUCCCACCAAAUGAUGAUGCCUGAAGAGCCUUGGUUUUUUG",
    "numeric result": -1.89
  }
]
